binders and their reported In vitro activity compared with native peptide (%) vs. GIP
- target-of-assay: T1, human GIP receptor (human, UniProt P48546 22-466)
- T1 sequence (looked up): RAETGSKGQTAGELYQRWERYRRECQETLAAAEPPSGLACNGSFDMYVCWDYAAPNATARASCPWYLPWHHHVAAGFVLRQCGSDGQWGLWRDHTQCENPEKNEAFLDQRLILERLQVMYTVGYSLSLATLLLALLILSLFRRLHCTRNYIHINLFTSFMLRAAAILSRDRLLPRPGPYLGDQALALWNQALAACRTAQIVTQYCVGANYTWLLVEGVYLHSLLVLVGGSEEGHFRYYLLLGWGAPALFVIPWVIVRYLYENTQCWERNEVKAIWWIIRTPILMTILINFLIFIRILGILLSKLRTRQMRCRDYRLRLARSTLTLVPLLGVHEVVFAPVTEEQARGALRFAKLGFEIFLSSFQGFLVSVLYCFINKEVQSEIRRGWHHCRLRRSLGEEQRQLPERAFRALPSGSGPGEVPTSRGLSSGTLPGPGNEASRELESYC
- experiment-summary: cell-based or functional assay
Bridges are numbered along the chain shown (N, C = ends). Where no end group is shown, it is not given here. [ ]: non-standard residue; d: D form. The star is where a group is joined. Acetyl(2-(4-imidazolyl)) = O=C(Cc1c[nH]cn1)*; Aib = CC(C)(N)C(=O)O
measurement-label: In vitro activity compared with native peptide (%) vs. GIP

binder	modifier-sign	endpoint-value
H[Aib]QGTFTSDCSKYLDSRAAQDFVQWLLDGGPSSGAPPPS [Triple agonist of SEQ ID NO: 26]	<	0.1
{Acetyl(2-(4-imidazolyl))}-[Aib]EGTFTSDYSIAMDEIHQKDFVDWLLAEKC (bridge 15-19) [Triple agonist of SEQ ID NO: 91]	=	0.3
H[Aib]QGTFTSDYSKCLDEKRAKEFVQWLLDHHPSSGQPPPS (bridge 16-20) [Triple agonist of SEQ ID NO: 65]	=	11.6
{Acetyl(2-(4-imidazolyl))}-[Aib]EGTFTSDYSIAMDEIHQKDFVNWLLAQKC (bridge 15-19) [Triple agonist of SEQ ID NO: 90]	<	0.1
{Acetyl(2-(4-imidazolyl))}-[Aib]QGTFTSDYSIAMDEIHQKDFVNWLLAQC (bridge 15-19) [Triple agonist of SEQ ID NO: 85]	=	0.3

This collection of values is drawn from patent US20240024426A1.
